Kindly supply the reported growth values for the records listed here.
Test system: HCC-2998 colon
Assay: NCI-60 one-dose screen, 48 h (100 = growth as untreated, 0 = no growth, -100 = all killed)
Conditions: 10 µM unless noted
About 83,000 compounds went through this panel and 20% of them were active in at least one assay; those are over-represented in the sample as a whole.
Answers are plain numbers, in %.

Illustrative cases are given below, each with its answer.
C(CCCSC1=NCCN1)CCSC1=NCCN1 | 103
COc1cc2ncnc(Nc3ccc(S(=O)(=O)Nc4cc(C)on4)cc3)c2cc1OCCCN1CCOCC1 | 107
COc1ccc(Nc2nccc(Nc3ccc4[nH]ncc4c3)n2)cc1 | 63.4
CCN1C(=O)N(CC)C2C1NN=c1s/c(=C\c3ccccc3)c(=O)n12 (stereo not given) | 16.2

Query block: Item under review: COc1cc2c(c(OC)c1OC)C(=O)CC(c1cccc(C(=O)Nc3ccc(Br)cc3)c1)O2 (stereo not given) . Reported growth?
Result block: 92.1

This collection of values is drawn from PubChem BioAssay (NCI).
